# assayComment: Human HepG2 cell viability assay in 384 well format
# Type: toxicity, cell-based
# Set-up: dose 125 nL, time 70.5 hour; concentration not given beside the values
# conditionInfo: HepG2 cells, read-out: Inhibition
assayEndpoint: cytotoxicity at 70.5 h (%)
Just the number in %, nothing appended.

Example results:
Cc1noc(C)c1C(=O)N1CCC2(CC1)c1nc[nH]c1CCN2C: -3.9
Cc1cccc(Nc2cccc(C3CCCN(Cc4ncc[nH]4)C3)n2)n1 (stereo not given): -8.27
Cc1cccc(CN2C[C@@H]3CCCO[C@@H]3[C@H](Nc3ccccn3)C2)n1: 1.63
Cc1cccc(N2CC[C@@H]3[C@@H](CO[C@H]3CNC(=O)c3ccco3)C2)n1: -0.126

// moving on: another record for cytotoxicity at 70.5 h
# input Fill in: cytotoxicity at 70.5 h of CN(C(=O)C1CCCC1)C(c1cccc(F)c1)c1ccccn1 (stereo not given) is ___
# output 14.2

====

# assayComment: Human HepG2 cell viability assay in 384 well format
# Format: toxicity, cell-based
# Design: dose 125 nL, time 70.5 hour; concentration not given beside the values
# conditionInfo: HepG2 cells, read-out: Inhibition
assayEndpoint: cytotoxicity at 70.5 h (%)
Just the number in %, nothing appended.

Example results:
Cc1cc(N(C)C)nc(N2CCn3c(nnc3C3CC3)C2)n1: 5.46
O=C(O)c1cc(S(=O)(=O)Nc2cccc(F)c2F)cc2c1OCCO2: -0.966
CN(CCCc1cc(-c2ccc(F)cc2)n(C)n1)CC(N)=O: -11.3
COc1ccc(-c2ccc(C(=O)N3CCOCC3CC(N)=O)o2)cc1 (configuration not stated): -2.54

# input Fill in: cytotoxicity at 70.5 h of `c1cc(CO[C@@H]2CC[C@H]3[C@H]2OCCN3CC2CCOCC2)ccn1` is ___
# output 21.5

# input Fill in: cytotoxicity at 70.5 h of `Cc1nc(C)c(CC(=O)NCc2ccc(F)cc2F)s1` is ___
# output -11.3

====

cytotoxicity at 70.5 h values by entry
# assayComment: Human HepG2 cell viability assay in 384 well format
# Format: toxicity, cell-based
# Parameters: dose 125 nL, time 70.5 hour; concentration not given beside the values
# conditionInfo: HepG2 cells, read-out: Inhibition
Just the number in %, nothing appended.

Example results:
Cc1nc(C)c(CNC(=O)N2CCc3ccccc3C2CO)s1 (stereo not given): -1.94
CCN(c1ccc(C(=O)NCc2cc[nH]n2)cc1)C(C)C: 22.1

# input Fill in: cytotoxicity at 70.5 h of `CCOc1cccc(CN2CCCn3nc(CNS(C)(=O)=O)cc3C2)c1` is ___
# output -9.54

# input Fill in: cytotoxicity at 70.5 h of N#CCC1CC(c2ccc(F)cc2)=NO1 (stereo not given) is ___
# output -10

# input Fill in: cytotoxicity at 70.5 h of `Cc1ncsc1CCC(=O)NCc1csc(N(C)C)n1` is ___
# output -1.1

# input Fill in: cytotoxicity at 70.5 h of `O=C(NCCC1=CCCCC1)NCc1nnc2n1CCC2` is ___
# output -10.8

# input Fill in: cytotoxicity at 70.5 h of Cc1c(C(C)NC(=O)C2CCCCC2)cnn1C (stereo not given) is ___
# output 5.03

====

# assayComment: Human HepG2 cell viability assay in 384 well format
# Format: toxicity, cell-based
# Parameters: dose 125 nL, time 70.5 hour; concentration not given beside the values
# conditionInfo: HepG2 cells, read-out: Inhibition
assayEndpoint: cytotoxicity at 70.5 h (%)
Just the number in %, nothing appended.

COC(=O)c1cc2c(=O)[nH]c(=O)n(CCc3ccccc3)c2nc1C: 4.39
OC(CNCCn1cccn1)COc1cccc(C(F)(F)F)c1 (configuration not stated): -1.44
COc1cccc(Cn2c(C3CCNCC3)cc3cccnc32)c1: -1.55
CC(C)CCN(C(=O)c1ccc(-n2ncc(C#N)c2N)cc1)C1CC1: -6.84
COc1cc(CNC(=O)C(C)SC)cc(Br)c1OC (configuration not stated): -8.14

# input Fill in: cytotoxicity at 70.5 h of `CCCc1nc2c(c(C)c(C)n2Cc2cccnc2)c(N)c1CC` is ___
# output 54.7

# input Fill in: cytotoxicity at 70.5 h of O=C(NCC(O)(c1cccs1)C1CC1)NC1CCCCC1 (configuration not stated) is ___
# output 10.9

# input Fill in: cytotoxicity at 70.5 h of O=C(NCCc1ccc2c(c1)OCO2)C1CCCN(Cc2ccco2)C1 (configuration not stated) is ___
# output 1.41

# input Fill in: cytotoxicity at 70.5 h of `CCc1ncc(C(=O)N(C)Cc2cc(-c3ccncc3)no2)cn1` is ___
# output 35.7

# input Fill in: cytotoxicity at 70.5 h of `O=C(NCc1ccoc1)Nc1ccc(CN2CCOC2=O)cc1` is ___
# output 19

# input Fill in: cytotoxicity at 70.5 h of CC(C)C(C#N)N1CCN(Cc2nccn2CC(F)(F)F)CC1 (configuration not stated) is ___
# output -10.7

# input Fill in: cytotoxicity at 70.5 h of Cc1ncsc1CNC(=O)N(CCCO)C1CCc2ccccc21 (configuration not stated) is ___
# output -7.98

====

# assayComment: Human HepG2 cell viability assay in 384 well format
# Type: toxicity, cell-based
# Design: dose 125 nL, time 70.5 hour; concentration not given beside the values
# conditionInfo: HepG2 cells, read-out: Inhibition
assayEndpoint: cytotoxicity at 70.5 h (%)
Just the number in %, nothing appended.

CN1CCC(Cc2noc(-c3cn(Cc4ccc(F)cc4)nn3)n2)CC1: -3.72
Cc1cc(S(=O)(=O)NCC(C)(C)N)c(F)cc1F: -0.878
CCCn1ncc(CN2CCCC(C(=O)c3ccc(SC)cc3)C2)c1C (stereo not given): -9.31
CC(SCC(=O)NC(N)=O)c1ccccc1F (stereo not given): -8.18
CCN(CCc1nccs1)C(=O)c1ccco1: -7.04

# input Fill in: cytotoxicity at 70.5 h of CCc1nc(CN(C)C2CCN(Cc3cnc(C)cn3)C2)no1 (stereo not given) is ___
# output 66

# input Fill in: cytotoxicity at 70.5 h of `CN1CCC(c2cccc(-c3cccc(C(=O)O)c3)n2)CC1` is ___
# output -8.16

# input Fill in: cytotoxicity at 70.5 h of `Cc1cc(CN(C)C2CCN(c3cccc(-c4cscn4)c3)CC2)on1` is ___
# output -2.57

# input Fill in: cytotoxicity at 70.5 h of `NC1(c2nc(C(F)(F)F)cc(=O)[nH]2)CCCCC1` is ___
# output 0.93

# input Fill in: cytotoxicity at 70.5 h of CCc1c(C)nc2cc(-c3nccn3C)nn2c1N1CCCC(CO)C1 (stereo not given) is ___
# output 27.9

# input Fill in: cytotoxicity at 70.5 h of Cc1noc2ncc(C(=O)NCC3CCOC3)cc12 (stereo not given) is ___
# output 22

# input Fill in: cytotoxicity at 70.5 h of `CC1(C)COCCN1C(=O)CCc1nc(-c2ccncc2)no1` is ___
# output 4.51

# input Fill in: cytotoxicity at 70.5 h of CC(C(=O)NCc1ccnc(OCC(F)(F)F)c1)n1cncn1 (stereo not given) is ___
# output -2.68

# input Fill in: cytotoxicity at 70.5 h of OCCCN1CCCC1c1ccc(Br)cc1 (stereo not given) is ___
# output -9.27

# input Fill in: cytotoxicity at 70.5 h of `CN(C)C(=O)CN1C(=O)[C@H]2CC[C@@H]1CN(Cc1ccccc1C#N)C2` is ___
# output -4.2

# input Fill in: cytotoxicity at 70.5 h of `COCCN1CCc2c(cnc(-c3ccoc3)c2C(=O)O)C1` is ___
# output -12.1

# input Fill in: cytotoxicity at 70.5 h of `Cc1cccc(N2CCC3(CCN(C(=O)c4cccnc4)CC3)C2)n1` is ___
# output 14

# input Fill in: cytotoxicity at 70.5 h of c1ncn(CC2CN(Cc3noc(C4CC4)n3)CCO2)n1 (stereo not given) is ___
# output 29.1

# input Fill in: cytotoxicity at 70.5 h of `COCCN1CCC(NC(=O)C/C=C/c2ccc(C(C)C)cc2)CC1` is ___
# output 2.87

# input Fill in: cytotoxicity at 70.5 h of CCc1nnc(C(C)N2CCN(CCC(=O)NC3CC3)CC2)o1 (stereo not given) is ___
# output 22

# input Fill in: cytotoxicity at 70.5 h of Cc1n[nH]c2c1C(c1ccc(F)cc1)SCC(=O)N2 (stereo not given) is ___
# output -4.92

# input Fill in: cytotoxicity at 70.5 h of CCN1CC2(CC1=O)CN(Cc1ccco1)CCN(C(=O)N(C)C)C2 (stereo not given) is ___
# output -8.06

# input Fill in: cytotoxicity at 70.5 h of O=C(c1ccncc1)N1CCC(c2nc(O)cc(-c3ccncc3)n2)C1 (stereo not given) is ___
# output -12.6

# input Fill in: cytotoxicity at 70.5 h of CCc1noc(CC)c1CC(=O)N1CCCC(N2CCCCC2)C1 (stereo not given) is ___
# output -8.14

# input Fill in: cytotoxicity at 70.5 h of `Fc1ccc(NCc2ncc[nH]2)cc1Br` is ___
# output -7.28
